Reference source: patent US20210139581A1

- Measured target: T1, human CD33 (human, UniProt P20138 18-259, limits assumed)
- T1 construct: Human CD33 immobilized on the BLI sensor tip or the BIAcore C1 chip; also called Siglec-3
- T1 sequence (P20138 18-259 limits assumed): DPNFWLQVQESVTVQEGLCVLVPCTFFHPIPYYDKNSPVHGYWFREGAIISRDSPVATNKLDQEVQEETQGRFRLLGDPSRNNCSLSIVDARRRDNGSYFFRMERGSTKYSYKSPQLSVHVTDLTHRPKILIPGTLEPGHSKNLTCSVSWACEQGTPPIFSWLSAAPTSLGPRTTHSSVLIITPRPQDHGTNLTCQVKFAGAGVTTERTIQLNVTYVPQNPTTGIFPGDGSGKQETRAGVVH
- Experimental protocol: BLI (ForteBio), Fab 100 nM on immobilized CD33
Readout type: Fold affinity improvement over parental Ab (AB-H63) (fold)
Numbers only, in fold.

AB-63.6 (antibody, V domains shown) VH: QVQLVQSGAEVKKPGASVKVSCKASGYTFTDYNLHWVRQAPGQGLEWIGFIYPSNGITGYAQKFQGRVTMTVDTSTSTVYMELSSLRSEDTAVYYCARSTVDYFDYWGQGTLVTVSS VL: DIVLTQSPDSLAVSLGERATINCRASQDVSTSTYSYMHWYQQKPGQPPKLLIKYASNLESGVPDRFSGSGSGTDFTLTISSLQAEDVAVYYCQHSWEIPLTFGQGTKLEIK :: 8.96

I'm hoping you can list Fold affinity improvement over parental Ab (AB-H63) for every binder here, please.
1. AB-63.15 (antibody, V domains shown) VH: QVQLVQSGAEVKKPGASVKVSCKASGYTFTDYNYHWVRQAPGQGLEWIGFIYPSNGITGYAQKFQGRVTMTVDTSTSTVYMELSSLRSEDTAVYYCARSDVDYFDLWGQGTLVTVSS VL: DIVLTQSPDSLAVSLGERATINCRASQDVSTSTYSYMHWYQQKPGQPPKLLIKYASNVESGVPDRFSGSGSGTDFTLTISSLQAEDVAVYYCQHSWEIPLTFGQGTKLEIE
2. AB-63.18 (antibody, V domains shown) VH: QVQLVQSGAEVKKPGSSVKVSCKASGYTHTDYNLHWVRQAPGQGLEWIGFIYPSNGITGYAQKFQGRVTMTVDTSTSTVYMELSSLRSEDTAVYYCARSDVDYFDYWGQGTLVTVSS VL: DIVLTQSPDSLAVSLGERATINCRASQSVSTSTYSYMHWYQQKPGQPPKLLIKYESNLESGVPDRFSGSGSGTDFTLTISSLQAEDVAVYYCQHSWEIPLTFGQGTKLEIK

[12.1, 4.44]
